Recorded measurements of cytotoxicity at 70.5 h, one per entry
- EXPERIMENT_NOTES: Human HepG2 cell viability assay in 384 well format
- Format: toxicity, cell-based
- Parameters: dose 125 nL, time 70.5 hour; concentration not given beside the values
- TEST_PARAMETERS: HepG2 cells, read-out: Inhibition

MOLECULE	QUANTITY_UNIT	cytotoxicity at 70.5 h
COc1ccc(Cl)cc1-c1cc(NC(=O)C2CNC(=O)N2)[nH]n1 (centres undefined)	%	1.69
O=C(C1CCOCC1)N1C[C@@H]2C[C@@H](c3nc(C4CC4)cs3)O[C@@H]2C1	%	8.69
N#CCCN(Cc1cccnc1)C(=O)c1ccc(OCC2CC2)cc1	%	-4.18
O=C(c1nnn(-c2ccc(C(F)(F)F)cc2)n1)N1CC(O)C1	%	-8.07
Cn1cnnc1C1CCCN(C(=O)NCc2ccccc2)C1 (centres undefined)	%	1.38
Cc1cc(C)n2c(CNCCNc3ccccc3)cnc2n1	%	-1.23
COc1ccc(CN2CC3(CCNCC3)CCC2=O)c(F)c1F	%	15.3
CN1CCC(Oc2ccc(-n3ccnc3-c3nccn3C)cc2)CC1	%	-8.7
CCN1CCN(C(=O)c2ccc3c(c2)OCC(=O)N3)[C@H]2CS(=O)(=O)C[C@H]21	%	-12.3
Cc1ccc(CNCc2cccc3cccnc23)c(OC2CCOC2)c1 (centres undefined)	%	12.2
O=C(NCc1ccccc1Cn1ccnc1)N1CCOCC1	%	-9.82
O=C(O)CN1CCC(c2ccccc2)C1 (centres undefined)	%	-13.6
O=C(N[C@@H]1CN(CC2CC2)[C@@H]2CCCO[C@@H]21)c1cscn1	%	-1.52
CN1CCC(CNC(=O)Cc2ccc(N(C)C)cc2)CC1	%	-6.81
CC(C)N1CCCn2c(nc(CNC(=O)c3nccn3C)cc2=O)C1	%	-17.1
CC(C#N)CSc1ccccc1NCC(=O)NC(C1CC1)C1CC1 (centres undefined)	%	8.68
CC(Cn1cccn1)NC(=O)NCc1ccc(S(C)(=O)=O)cc1 (centres undefined)	%	11.7
CCCc1cc(NC2CCN(Cc3ccccn3)CC2)n2nccc2n1	%	-4.87
O=C(O)CC1CN(Cc2ccccc2)CCO1 (centres undefined)	%	-0.381
Cc1ccsc1CNC(=O)c1ccc2c(c1)CCC(=O)N2	%	16.1
CCn1cc(NC(=O)NCCc2ccc3c(c2)OCCO3)cn1	%	-6.54
CNC(=O)[C@H]1C[C@@H]2CCN(Cc3nccs3)C[C@H]2O1	%	-6.34
CC(Cc1ccco1)NS(=O)(=O)N1CCCCCC1 (centres undefined)	%	-8.2
CCS(=O)(=O)N1CC(c2nc(-c3ccsc3)no2)C1	%	-3.37
